zone of inhibition at 200 µg/disc values for the molecules below.
# Test system: Candida albicans
# Method Description: Antimicrobial activity against Candida albicans IFO 0583 at 200 ug/disc after 48 hrs
# Type: functional
# Experimental Parameters: IFO 0583, 48 h, read-out: IZ

Chem Smiles	Relation Operator	zone of inhibition at 200 µg/disc [mm]
O=C(NNC(=S)NC12CC3CC(CC(C3)C1)C2)c1ccc(Cl)cc1	<	10
O=C(NNC(=S)NC12CC3CC(CC(C3)C1)C2)c1ccc([N+](=O)[O-])cc1	<	10
C1C2CC3CC1CC(Nc1nnc(C45CC6CC(CC(C6)C4)C5)s1)(C2)C3	=	18
c1csc(-c2nnc(C34CC5CC(CC(C5)C3)C4)o2)c1	=	16
Clc1ccc(-c2nnc(C34CC5CC(CC(C5)C3)C4)o2)cc1	<	10
